- test_method_notes: NOD1 signaling inhibitors, primary screen, cell-based, luminescence, uHTS (AID 1578);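 further: HEK-293T reporter cells stimulated with the NOD1 agonist gamma-tri-DAP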
- settings: NOD1-driven NF-kB luciferase reporter cells, at 4 µM, active compounds read high
The whole screen tested about 290,000 compounds, of which about 3,000 (1%) were called active. Many of the other results were omitted from the sample, so actives are more common in it than they were.
Listed here: items and their measured inhibition.
Respond with the bare value in %.

Example compounds with recorded inhibition:
Q: What does the record list as inhibition for Cc1nnc2sc(SCC(=O)Nc3nccs3)nn2c1=O ?
Result: -2.3

Q: What does the record list as inhibition for Cc1cccc(C(=O)Nc2ccc(C(=O)Nc3ccc(O)cc3)cc2)c1 ?
Result: -22.1

New cases:
Q: What does the record list as inhibition for Cc1sc2nc(NCCO)[nH]c(=O)c2c1C ?
Result: -16

Q: What does the record list as inhibition for CN1C2CCC1/C(=C\c1ccccc1F)C(=O)/C2=C/c1ccccc1F ?
Result: 34.2

Q: What does the record list as inhibition for CN1C2CCC1/C(=C\c1ccc(F)cc1)C(=O)/C2=C/c1ccc(F)cc1 ?
Result: 77.7

Q: What does the record list as inhibition for Cc1ccc(C(=O)Nc2cccnc2Cl)cc1Cl ?
Result: -74.4

Q: What does the record list as inhibition for Cc1ccc2nc(-c3cc(-c4ccccc4)no3)cn2c1 ?
Result: -4.9

Q: What does the record list as inhibition for CCOC(=O)CNC(=O)CSc1nnc(NC(=O)c2ccc3c(c2)OCO3)s1 ?
Result: -31.4

Q: What does the record list as inhibition for COCCn1c(SCC(=O)Nc2ccc(S(N)(=O)=O)cc2)nc2ccccc21 ?
Result: -3.5

Q: What does the record list as inhibition for CCOC(=O)C1CCN(C(=O)Cn2cccc2C(=O)c2ccccc2)CC1 ?
Result: -13.4

Q: What does the record list as inhibition for COc1cccc2cc(C(=O)NCc3ccc(C)cc3)c(=N)oc12 ?
Result: 18.3
